Test system: K4 kissing-loop RNA reporter;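 also: bound reporter read as fluorescence of individual clusters on recovered sequencing chips by microscopy, with normalized cluster intensities fitted with a binding model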
assay comment: apparent KD of K4 kissing-loop reporter; higher = weaker reporter binding
protocol conditions: Eterna round: R107; input ligand: theophylline 20 uM
measured property: apparent KD of K4 kissing-loop reporter

{"columns": ["entry sequence", "result"],
 "data": [
  ["GCCCGGGCGAGUGAUGUUCGCCCACGUGAUACCAGUGCCAUCCAACACCCUUGGCAGCACGCGGGCAGUGAUGUUGCCCUUGUAU [Exclusion Theophylline A GF 4]", "138 nM"],
  ["CGCAGUGAUGUUGCUAUUAUUCUUGAUUAACGAGGACCGGUACGGCCGCCACUCGGUUUCUAUCUGAUCCAGCGUUUUGUUGAGU [#23 K4 Tryptophan A Exclusion]", "620 nM"],
  ["CGCGCGGGUUGAGAGGUUCGCGCGAAUGAUACCAGUAUAUAAGAAUACCCUUGGCAGCAUAAGAAAGAUAUAGUGAUGUUGUAUA [SSTheophA.G]", "355 nM"]
]}

---

Test system: MS2 coat protein
assay comment: apparent KD of MS2 coat protein; designed switch direction (-1 OFF switch, 1 ON switch): 1; higher = weaker reporter binding
protocol conditions: input ligand: FMN 200 uM
measured property: apparent KD of MS2 coat protein (µM)

{"columns": ["entry sequence", "numeric readout"],
 "data": [
  ["UUAAUAAUGAUAGGAUAUACAUGAGGAAUUCUCGUAGAAGGAUCAUGACAUGAGGAUCACCCAUGUAACGCUCGAAAGAGCGUA [Mat - Same State NG 1 - JL mod - D39] (Eterna round: R96, puzzle: Same State NG 1)", 0.513],
  ["GCUCGUAUCACAACCAACAUGAGGAUCACCCAUGUAUGUUGGUAGGAUAUCUAUAUUAAGGAUAUAGAGAAGGGCCGAACGAGC [SameState NG3 #12] (Eterna round: R96, puzzle: Same State NG 3)", 0.0537],
  ["UACGCGAGAGGAGGAUAUGCAGAGGAUCACCCUGUAGAAGGCCUCAUAAGGAGGAUAUGCAGAGGAUCACCCUGUAGAAGGCCU [pwkr ssNG DX.22] (Eterna round: R96, puzzle: Same State NG 1)", 0.345],
  ["UUAAUAAUGAUAGGAUAUACAUGAGGAAUCCUCGUAGAAGGAUCAUGACAUGAGGAUCACCCAUGUAACGCUCAGAAGAGCGUA [Mat - Same State NG 1 - JL mod - D43] (Eterna round: R96, puzzle: Same State NG 1)", 0.738]
]}

---

System: MS2 coat protein
assay comment: apparent KD of MS2 coat protein; designed switch direction (-1 OFF switch, 1 ON switch): -1; higher = weaker reporter binding
protocol conditions: input ligand: none
Given measured apparent KD of MS2 coat protein, output yes if it is greater than or equal to 0.05 µM and no if not.

{"columns": ["entry sequence", "class label"],
 "data": [
  ["AACCUGAGGCUUUGCUUUAGGUUUACAUGAGGAUCACCCAUGUAGGAUAUGGUAGGCUUUGCUUACCAGAAGGACAUGAAAAUU [Mat - Exclusion NG 3 - Mod of JL - D28] (Eterna round: R96, puzzle: Exclusion NG 3)", "no"],
  ["GCUGGACGAGGAUAUGCAUUCGUGCUUCGGCACGUAAGGUCACAUGAGGAUCACCCAUGUAGAAGGUGUCCAGC [E2/6-B2] (Eterna round: R97, puzzle: Exclusion 2)", "no"],
  ["UCACGUACAGGAUAUACAUGAGGAUCACCCAUGUGCUCGAAGGCACGCCCGAGAUUCUGUAGAAGGGUAUAGCA [Eternabot (L1) Solution 50] (Eterna round: R97, puzzle: Exclusion 3)", "no"],
  ["CUCCGGCGUGUAGGAUAUGGUUCCGUUUCGGUUCCAGAAGGACAUGAGGAUCACCCAUGUGCCUGUCGUCGGUCGUCACCGGGC [salish99_ExNG1_r04_217] (Eterna round: R96, puzzle: Exclusion NG 1)", "no"],
  ["GAUUAACAUGAGGAUCACCCAUGUGAGGAUAUGGACUUGCCCACUUAACCAUUAGAGUCUAGAAGGCGCAUCUG [1986#25] (Eterna round: R97, puzzle: Exclusion 1)", "no"],
  ["ACGUGAGCUGAGGAUAUGCCACUAGCCCGCCUGGCAGAAGGCAGUACAUGAGGAUCACCCAUGUGCGUUGGGUG [Leintice] (Eterna round: R97, puzzle: Exclusion 6)", "yes"],
  ["UAAGUGCUGCGAGGAUAUACAUGAGGAUCACCCAUGUGGAUGUCUGAGGCUUUGCCUCAGACGAUGUAGAAGGCGCAGUACAAU [Mat - Exclusion NG 2 - Mod of JL - D51] (Eterna round: R96, puzzle: Exclusion NG 2)", "no"],
  ["AAAUAGGGAGGAUAUCCAAUAUAUGACAUGAGGAUCACCCAUGUUUCCACUCGUACCUCCGGAGAAGGCCCAUAAU [Ex5 #2] (Eterna round: R97, puzzle: Exclusion 5)", "no"],
  ["UAUUAGCAAGUAAGGUCCCACAUGAGGAUCACCCAUGUGCUCGUCUUAUAAGGUACUGUGACGAAAGUCACGGUACC [Sensor 3, v1 - 95] (Eterna round: R96, puzzle: Sensor v3, turn-off variant 1)", "no"],
  ["ACAGUCACAUGGGUACCAGACAUGAGGAUCACCCAUGUGACAGGUACUUUGUGGCGUCUUGUAUAAUUAAUAAUCAA [Sensor v2, turn off variant (Maaon - vinnie MOD7)] (Eterna round: R96, puzzle: Sensor v2, turn-off variant)", "no"],
  ["CUCCAGACAGGAUAUACGAGGCUGUGUUCCCAUUAUAGGACACAUGAGGAUCACCCAUGUAGAAGGGUCAAUGG [Eternabot (L1) Solution 28] (Eterna round: R97, puzzle: Exclusion 2)", "yes"],
  ["AUAAUGUCAGGAUAUCGAGACUACUGCCUCGGCAGUAGUCUCGAGAAGGGACAUGAGGAUCACCCAUGUGAUCA [E4/1-A2] (Eterna round: R97, puzzle: Exclusion 4)", "no"],
  ["UUCCAACAUGAGGAUCACCCAUGUCAGGAUAUCUAGGCUACUGCUACCACAAUUAGCUAGAGAAGGGACAAGAU [EX1 B.14] (Eterna round: R97, puzzle: Exclusion 1)", "no"],
  ["GUAUGGAGAGUGAGGAUAUUUCCUGAGUGAUCAGCGAAGAAGGUACAUGAGGAUCACCCAUGUAGGUGGACUAA [Eternabot (L1) Solution 14] (Eterna round: R97, puzzle: Brourd's mod of Exclusion 4)", "yes"],
  ["AAGAGGAUUAUAGGAUAUGAAGCUAAAACGGCGUUAGAAGGGUAUACAGAGUUACAUGAGGAUCACCCAUGUUGUGAUUUCUAA [AK ExNG1-V2-4.3] (Eterna round: R96, puzzle: Exclusion NG 1)", "yes"],
  ["AAACCAAUAGUCAGGAUAUCUUAGUCGCGGAUGUGGGAGAAGGGACAUGAGGAUCACCCAUGUGGGAGUAUGUG [Eternabot (L1) Solution 19] (Eterna round: R97, puzzle: Brourd's mod of Exclusion 4)", "yes"],
  ["GCAGCUAAUGCAGGAUAUCAGCACGUUUAGUGCUGAGAAGGGCACAUGAGGAUCACCCAUGUGAUCAAUUAAUAUUAAUGCUGC [ENG1/11-B2] (Eterna round: R96, puzzle: Exclusion NG 1)", "no"],
  ["UUUGGGCAAGCAUGAUCCCACAUGAGGAUCACCCAUGUGUUCGUCUUAUAGGCUGCUGAGGCUUUUGCCUCGGUGGC [LRO Sensor-off var1-01 loose mod of D91 from Mat747] (Eterna round: R97, puzzle: Sensor, turn-off variant 1)", "yes"]
]}
